Let's look at some compounds and their measured pKi.
Target: Chymase (Homo sapiens)
Sequence (P23946 whole entry): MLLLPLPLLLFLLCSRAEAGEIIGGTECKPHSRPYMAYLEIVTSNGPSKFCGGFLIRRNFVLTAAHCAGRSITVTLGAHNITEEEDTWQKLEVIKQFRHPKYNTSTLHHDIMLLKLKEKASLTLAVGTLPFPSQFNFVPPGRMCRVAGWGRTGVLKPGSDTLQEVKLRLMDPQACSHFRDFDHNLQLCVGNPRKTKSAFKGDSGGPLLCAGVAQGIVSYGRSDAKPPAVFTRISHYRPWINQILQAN
pKi: −log10 of the molar value.

| COMPOUND | VALUE MODIFIER | pKi |
| --- | --- | --- |
| CCN(CC)C(=O)CNC(=O)C(F)(F)C(=O)C(Cc1ccccc1)NC(=O)Cn1c(-c2cccc(C)c2)ncc(N)c1=O (centres undefined) | = | 8.03 |
| Nc1cnc(-c2cccc(F)c2)n(CC(=O)NC(Cc2ccccc2)C(=O)C(F)(F)C(=O)NCc2ccccc2)c1=O (centres undefined) | = | 7.80 |
| Cc1cccc(-c2ncc(N)c(=O)n2CC(=O)NC(Cc2ccccc2)C(=O)C(F)(F)F)c1 (centres undefined) | = | 7.30 |
| Cc1cccc(-c2ncc(N)c(=O)n2CC(=O)NC(Cc2ccccc2)C(=O)C(F)(F)C(=O)Nc2cccc(C(=O)O)c2)c1 (centres undefined) | = | 8.01 |
| Cc1cccc(-c2ncc(N)c(=O)n2CC(=O)NC(Cc2ccccc2)C(=O)C(F)(F)C(=O)N(C)C)c1 (centres undefined) | = | 6.31 |
| Cc1cccc(-c2ncc(N)c(=O)n2CC(=O)NC(Cc2ccccc2)C(=O)C(F)(F)C(=O)Nc2ccc(C(=O)O)cc2)c1 (centres undefined) | = | 7.78 |
| CCOC(=O)C(F)(F)C(=O)C(Cc1ccccc1)NC(=O)Cn1c(-c2cccc(C)c2)ncc(N)c1=O (centres undefined) | < | 5.00 |
| Cc1cccc(-c2ncc(N)c(=O)n2CC(=O)NC(Cc2ccccc2)C(=O)C(F)(F)C(=O)NCC(=O)N2CCCCC2)c1 (centres undefined) | = | 7.99 |
| Nc1cnc(-c2ccc(F)cc2)n(CC(=O)NC(Cc2ccccc2)C(=O)C(F)(F)C(=O)NCc2ccccc2)c1=O (centres undefined) | = | 6.36 |
| Cc1cccc(-c2ncc(N)c(=O)n2CC(=O)NC(Cc2ccccc2)C(=O)C(F)(F)C(=O)NCc2ccccc2)c1 (centres undefined) | = | 7.77 |
| Cc1cccc(-c2ncc(N)c(=O)n2CC(=O)NC(Cc2ccccc2)C(=O)C(F)(F)C(=O)NCCC(=O)O)c1 (centres undefined) | = | 7.64 |
| Cc1cccc(-c2ncc(N)c(=O)n2CC(=O)NC(Cc2ccccc2)C(=O)C(F)(F)C(=O)NCC(N)=O)c1 (centres undefined) | = | 7.92 |
| Nc1cnc(-c2cccnc2)n(CC(=O)NC(Cc2ccccc2)C(=O)C(F)(F)C(=O)NCc2ccccc2)c1=O (centres undefined) | = | 7.13 |
| CCNC(=O)CNC(=O)C(F)(F)C(=O)C(Cc1ccccc1)NC(=O)Cn1c(-c2cccc(C)c2)ncc(N)c1=O (centres undefined) | = | 8.11 |

====

Molecular target: UniProt P08311
Sequence (P08311 whole entry): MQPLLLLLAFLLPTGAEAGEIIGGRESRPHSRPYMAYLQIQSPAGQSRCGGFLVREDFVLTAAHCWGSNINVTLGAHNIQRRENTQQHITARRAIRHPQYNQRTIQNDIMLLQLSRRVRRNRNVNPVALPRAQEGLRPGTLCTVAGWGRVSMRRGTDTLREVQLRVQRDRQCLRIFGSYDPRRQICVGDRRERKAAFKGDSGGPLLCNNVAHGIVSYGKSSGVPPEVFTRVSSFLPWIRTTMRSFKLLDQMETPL
pKi: −log10 of the molar value.
METRIC: pKi

| COMPOUND | NUMERIC VALUE |
| --- | --- |
| Nc1cnc(-c2cccc(Cl)c2)n(CC(=O)NC(Cc2ccccc2)C(=O)C(F)(F)C(=O)NCc2ccccc2)c1=O (stereo unspecified) | 5.86 |
